# System: Streptococcus pyogens (ATCC8668)
# assay_text: Microtitre plate assay, IC90 determination (SPY 8668)
# Type: cell-based
# measurement_context: 90% inhibitory concentration for bacterial growth, 37° C., 24 hours, resazurin fluorescence
Define the label as Yes when IC90 SPY 8668 is strictly less than 2 µg/mL and as No in all remaining cases.

1. COc1nc2ccc(Br)cc2cc1C(c1ccc(C)cc1)C(O)(CCc1ccccc1)CCN(C)C (stereo not shown) | Yes
2. CCOCCOCCOc1nc2ccc(Br)cc2cc1C(c1ccccc1)C(O)(CCc1ccccc1)CCN(C)C (stereo not shown) | No
3. COc1nc2ccc(Br)cc2cc1C(c1cccc(C)c1)C(O)(CCc1ccc(F)cc1)CCN(C)C (stereo not shown) | Yes
4. COc1nc2ccc(Br)cc2cc1C(c1ccccc1)C(O)(CCc1ccc(F)c(F)c1)CCN(C)C (racemic) | No
5. COc1nc2ccc(Br)cc2cc1C(c1ccccc1)C(O)(CCc1cccc(F)c1)CCN(C)C (racemic) | No
6. COc1nc2ccc(Br)cc2cc1C(c1ccccc1)C(O)(CCc1ccccc1)CCN(C)C (stereo not shown) [Compound 20] | Yes
7. COc1nc2ccc(Br)cc2cc1C(c1cccc(Cl)c1)C(O)(CCc1ccccc1)CCN(C)C (stereo not shown) | No
8. COc1nc2ccc(Br)cc2cc1C(c1ccccc1)C(O)(CCc1ccc(C)cc1)CCN(C)C (racemic) [Compound 53] | Yes
9. COc1nc2ccc(Br)cc2cc1C(c1ccccc1)C(O)(CCc1ccccc1)CCN(C)C (stereo not shown) [Compound 19] | Yes
10. COc1nc2ccc(Br)cc2cc1C(c1ccc(Cl)cc1)C(O)(CCc1cccc(F)c1)CCN(C)C (stereo not shown) | Yes
11. COc1ccc(CCC(O)(CCN(C)C)C(c2ccc(Cl)cc2)c2cc3cc(Br)ccc3nc2OC)cc1 (stereo not shown) | Yes
